Recorded values, source PubChem BioAssay AID328.

# System: BDF1 mice, P388 leukemia ip, median survival T/C
# assay procedure: NCI In Vivo Anticancer Drug Screen. Data for tumor model P388 Leukemia (intraperitoneal) in B6D2F1 (BDF1) mice
# conditions: endpoint: median survival time; dose: 25.0 mg/kg/injection; schedule: Q04DX003 (ip); vehicle: Klucel (hydroxypropylcellulose) (HPC); higher = longer survival
Inconclusive results and toxic doses are left out.
Known T/C of a selection of molecules

A selection of reference data follows.
query: Entry under review: CC1=CC2=NC(=O)C(c3ccccc3)C(=O)N2C=C1 (centres undefined) . Reported T/C?
result: 100 % of control

query: Check N#CCNC(=O)c1ccccc1 too.
result: 110 % of control

query: Check O=[N+]([O-])c1ccc2nccc(Cl)c2c1 too.
result: 100 % of control

Now look at this entry.
query: Entry under review: CCN(Cc1ccc(Cl)c(Cl)c1)c1ccc2nc(N)nc(N)c2c1C . Reported T/C?
result: 109 % of control

###

# Tested on: BDF1 mice, P388 leukemia ip, median survival T/C
# assay procedure: NCI In Vivo Anticancer Drug Screen. Data for tumor model P388 Leukemia (intraperitoneal) in B6D2F1 (BDF1) mice
# conditions: endpoint: median survival time; dose: 200.0 mg/kg/injection; schedule: Q01DX009 (ip); vehicle: saline; higher = longer survival
Toxic doses and inconclusive results are not listed.
Known T/C of a selection of compounds

query: Entry under review: C=C(C)C(=O)OC1CCCCC1 . Reported T/C?
result: 100 % of control

query: Check OCC(CO)(CO)CBr too.
result: 110 % of control

Further cases:
query: Entry under review: COC(=O)C1(N)CCCC1 . Reported T/C?
result: 104 % of control

###

# Tested on: BDF1 mice, P388 leukemia ip, median survival T/C
# assay procedure: NCI In Vivo Anticancer Drug Screen. Data for tumor model P388 Leukemia (intraperitoneal) in B6D2F1 (BDF1) mice
# conditions: endpoint: median survival time; dose: 200.0 mg/kg/injection; schedule: Q01DX001 (ip); vehicle: Klucel (hydroxypropylcellulose) (HPC); higher = longer survival
Toxic doses and inconclusive results are not listed.
measurement kind: T/C

A selection of reference data follows.
query: Which T/C is reported with BDF1 mice, P388 leukemia ip, median survival T/C for this entry: CN=Cc1ccc([N+](=O)[O-])cc1 ?
result: 104 % of control

query: Check Cc1c(N)nc(=S)[nH]c1C(=O)O too.
result: 109 % of control

Now look at this entry.
query: Which T/C is reported with BDF1 mice, P388 leukemia ip, median survival T/C for this entry: CCCCCn1c(Cl)c(/C=N\Nc2ccccc2[N+](=O)[O-])c2ccccc21 ?
result: 96 % of control

###

# Tested on: BDF1 mice, P388 leukemia ip, median survival T/C
# assay procedure: NCI In Vivo Anticancer Drug Screen. Data for tumor model P388 Leukemia (intraperitoneal) in B6D2F1 (BDF1) mice
# conditions: endpoint: median survival time; dose: 25.0 mg/kg/injection; schedule: Q01DX009 (ip); vehicle: saline with Tween-80
Toxic doses and inconclusive results are not listed. How the source made its calls: active means survival T/C of 150% or more; inactive means T/C below 125% in these data.
Return exactly one item of yes (active), no (inactive)

query: Tell me the assay call for CS(=O)(=O)OCCN(CCOS(C)(=O)=O)c1ccc(C=O)cc1 please.
result: no

query: Check CCC(=O)O[C@H]1CC[C@H]2[C@@H]3CC(=C(Br)Br)C4=CC(=O)CC[C@]4(C)[C@H]3CC[C@]12C too.
result: no

query: Check O=C1NC(=O)C2(CCc3ccccc3C2)N1 (stereo unspecified) too.
result: no

query: Check Cn1c2nc(=O)n(-c3ccccc3)c(=O)c-2nc2ccccc21 too.
result: no

query: Check CC(C)CC(CC(C)C)NCC(C)OC(=O)c1ccc(N)cc1 (stereo unspecified) too.
result: no

query: Check CC(C)=CCC/C(C)=C\C=N\NS(=O)(=O)c1ccc([N+](=O)[O-])cc1 too.
result: no

query: Check C[n+]1c2ccccc2cc2ccccc21 too.
result: no

query: Check O=C(Nc1cc(Cl)ccc1Cl)O/N=C/c1ccncc1 too.
result: no

query: Check Cc1ccc(C)c(CCN)c1 too.
result: no

query: Check O=C1c2ccccc2C(=O)c2c(Cl)cccc21 too.
result: no

query: Check CCSc1ccc2c(c1)N(CCCN1CCN(C)CC1)c1ccccc1S2 too.
result: no

query: Check CCC/C=C/C=C/C1CC(O)C(O)C(=O)C1CO (stereo unspecified) too.
result: no

query: Check Cc1noc2nccnc12 too.
result: no

query: Check CC1=NC2=NC(CCCC(=O)Nc3ccc(Cl)cc3)=NC3=CC=CC(=N1)N32 too.
result: no

query: Check Cc1cccc(C(=O)C=C(C(F)(F)F)C(F)(F)F)c1 too.
result: yes

query: Check NC(Cc1ccccc1Cl)C(=O)O (stereo unspecified) too.
result: no

query: Check COc1cccc(Sc2ccc([N+](=O)[O-])c3nonc23)c1 too.
result: no

query: Check CCCCCCCCCCCCCCCC(=O)N(CCCN)C(C)CCCN(CC)CC (stereo unspecified) too.
result: no

query: Check C=CCOc1ccccc1OC too.
result: no

query: Check O=[N+]([O-])c1cc2c(c([N+](=O)[O-])c1)OCOC2 too.
result: no

query: Check Cc1cc(-c2ccc(Cl)cc2)[n+](C)n1C too.
result: no

query: Check CCCCC(I)C(C)(C)[n+]1ccccc1 (stereo unspecified) too.
result: no

query: Check CC(=O)c1ccccc1OCC(O)CN1CCN(c2ccccc2)CC1 (stereo unspecified) too.
result: no
